The entries below come with measured pIC50 values attached.
target: cAMP-dependent protein kinase catalytic subunit alpha (Bos taurus, UniProt P00517); test: PKA Inhibition Assay; details: pH 7.4; 30 °C
pIC50: −log10 of the molar value.

# chemical smiles, pIC50
measured = [
    ("CCn1c(=O)c2cc(O)c(O)cc2c2cc(O)c(O)cc21", "< 2.70"),
]

Turning now to a further record.
Record Oc1cc2nc(O)c3cc(O)c(O)cc3c2cc1O . Reported pIC50: < 3.10
